// note: pIC50 values for Lanosterol synthase (Homo sapiens, UniProt P48449) were reported in different studies
pIC50: −log10 of the molar value.
Readout Kind: pIC50

Chemical Smiles: CC(C)CCC[C@@H](C)[C@H]1CCC2=C(CCCN3CCCCC3)CCC[C@@]21C
Data Value: 4.92

Chemical Smiles: CN(C)Cc1ccc(CN2CCN(C(=O)c3ccc(Cl)cc3)CC2)cc1
Data Value: 7.40

Chemical Smiles: O=C(C1CCN(c2ccncc2)CC1)N1CCN(S(=O)(=O)c2ccccc2)CC1
Data Value: 6.84

Chemical Smiles: CC(C)CCC[C@@H](C)[C@H]1CCC2=C(CCC[n+]3ccccc3)CCC[C@@]21C
Data Value: 4.90

Chemical Smiles: CCN(CC)C(C)(C)CCCC[C@H]1CC[C@H](N(C)S(=O)(=O)c2ccc(C(F)(F)F)cc2)CC1
Data Value: 5.31

Chemical Smiles: C=CCN(C)CCCCOc1ccc2c(-c3ccc(Br)cc3)nsc2c1
Data Value: 6.59

Chemical Smiles: C=CCN(C)C/C=C/COc1ccc(-c2nsc3cc(Br)ccc23)cc1
Data Value: 5.73

Chemical Smiles: CCCCCCCCCCCC[N+](C)(C)[O-]
Data Value: 5.67

Chemical Smiles: C=CCN(C)CCCCCCOc1ccc2c(-c3ccc(Br)cc3)nn(C)c2c1
Data Value: 5.64

Chemical Smiles: CN(C)Cc1ccc(CNC(=O)c2ccc(C(F)(F)F)cc2)cc1
Data Value: 5.86

Chemical Smiles: COc1ccc(-n2c(C)cc(CNCc3ccc(CN(C)C)cc3)c2C)cc1
Data Value: 4.90

Chemical Smiles: O=C(c1ccc(Cl)cc1)N1CCC(=Cc2ccc(C3=NCCO3)cc2)CC1
Data Value: 5.94

Chemical Smiles: CN(CCCCCCOc1ccc(C(=O)c2ccc(Br)cc2)c(F)c1)C1CC1
Data Value: 7.01

Chemical Smiles: CN(C)Cc1ccc(CN2CCN(S(=O)(=O)c3ccc(Cl)cc3)CC2)cc1
Data Value: 7.49

Chemical Smiles: CN(C)Cc1ccc(CNC(=O)Nc2ccc(Cl)cc2)cc1
Data Value: 5.51

Chemical Smiles: CN(C)Cc1ccc(CN2CCN(C(=O)c3ccc(OC(F)(F)F)cc3)CC2)cc1
Data Value: 7.70

Chemical Smiles: O=C(C1CCN(c2ccncc2)CC1)N1CCN(S(=O)(=O)c2ccc(Br)cc2)CC1
Data Value: 6.79

Chemical Smiles: C=CCN(C)CCCCCCOc1ccc2c(c1)S(=O)(=O)C=C2c1ccc(Br)cc1
Data Value: 8.11

Chemical Smiles: C=CCN(C)C/C=C/COc1ccc2c(-c3ccc(Br)cc3)csc2c1
Data Value: 7.87

Chemical Smiles: CN([C@H]1CC[C@H](CCCCCN(CCO)CCO)CC1)S(=O)(=O)c1ccc(C(F)(F)F)cc1
Data Value: 6.14

Chemical Smiles: C=CCN(C)CCCC1=C2CC[C@H]([C@H](C)CCCC(C)C)[C@@]2(C)CCC1
Data Value: 6.00

Chemical Smiles: CCN(CCO)CCCC#Cc1ccc2c(-c3ccc(Br)cc3)nsc2c1
Data Value: 6.64

Chemical Smiles: C=CCN(C)Cc1ccc(-c2ccc(C(=O)c3ccc(Br)cc3)cc2)cc1
Data Value: 7.80

Chemical Smiles: CCN(CC)CCCCC[C@H]1CC[C@H](N(C)S(=O)(=O)c2ccc(C(F)(F)F)cc2)CC1
Data Value: 5.61
